The measurements presented in this section are drawn from the supplement of paper PMC10477191.

- Tested on: Drosophila ezoana antennal basiconic sensillum ab9
- METHOD: odor-evoked OSN spike response (post minus pre-stimulus); higher = stronger neuronal excitation
- TEST_SETTINGS: odor dilution: 10^-4
Consider the following molecules and their measured odor-evoked OSN spike response readings.
TEST_READOUT: odor-evoked OSN spike response (spikes/s)

>>> recorded_value("CC(=O)C(C)O (configuration not stated) [acetoin]")
57.3
>>> recorded_value("CCCCCOC(C)=O [pentyl acetate]")
67.9
>>> recorded_value("CCOC(=O)CC(C)O (configuration not stated) [Ethyl-3-hydroxybutyrate]")
59.2
>>> recorded_value("CCC(=O)OCCC(C)C [Isopentyl propionate]")
66.7
>>> recorded_value("C=CC(O)CCCCC (configuration not stated) [1-octen-3-ol]")
50.6
>>> recorded_value("CCCOC(C)=O [propyl acetate]")
60.9
>>> recorded_value("CC(=O)OCCC(C)C [Isopentyl acetate]")
56.7
>>> recorded_value("CC(C)=CCCC(C)=CC=O (mixture of isomers) [citral]")
55.8
>>> recorded_value("C/C=C/C(=O)OCC [Ethyl crotonate]")
50.1
>>> recorded_value("CC(=O)c1ccccc1 [Acetophenone]")
68.3
>>> recorded_value("CC(C)OC(=O)c1ccccc1 [isopropyl benzoate]")
58.6
>>> recorded_value("COc1ccccc1O [guaiacol]")
50.8

###

- Tested on: Drosophila virilis antennal basiconic sensillum AB1
- METHOD: odor-evoked OSN spike response (post minus pre-stimulus); higher = stronger neuronal excitation
- TEST_SETTINGS: odor dilution: 10^-4
So basically: odor-evoked OSN spike response at 70 spikes/s or higher? That is true. Lower than 70 spikes/s? That is false.

>>> classification("CCCC(=O)CC")
"true"
>>> classification("COC(=O)c1ccccc1O [Methyl salicylate]")
"false"
>>> classification("CCOC(=O)C(C)O (stereo not given) [Ethyl lactate]")
"true"

###

- System: Drosophila virilis antennal basiconic sensillum AB9
- METHOD: odor-evoked OSN spike response (post minus pre-stimulus); higher = stronger neuronal excitation
- TEST_SETTINGS: odor dilution: 10^-4
Examples of molecules with documented odor-evoked OSN spike response follow.
TEST_READOUT: odor-evoked OSN spike response (spikes/s)

>>> recorded_value("CCCCCOC(C)=O [pentyl acetate]")
80
>>> recorded_value("CCCC(=O)OCC [ethyl butanoate]")
75.9
>>> recorded_value("CCCOC(C)=O [propyl acetate]")
84.2
>>> recorded_value("CCCCCC(=O)OCC [ethyl hexanoate]")
67.4
>>> recorded_value("CCCCCCOC(C)=O [Hexyl acetate]")
53.3
>>> recorded_value("CCOC(=O)C(C)O (configuration not stated) [Ethyl lactate]")
72.4
>>> recorded_value("CCOC(=O)CC(C)O (configuration not stated) [Ethyl-3-hydroxybutyrate]")
58.3
>>> recorded_value("CCCC(=O)CC")
65.5
>>> recorded_value("CCC(=O)OCCC(C)C [Isopentyl propionate]")
86.6
>>> recorded_value("CC(=O)C(C)O (configuration not stated)")
97.4
>>> recorded_value("CC(=O)OCCC(C)C [Isopentyl acetate]")
81.4
>>> recorded_value("CCOC(=O)c1ccccc1 [ethyl benzoate]")
85.5

###

Collected odor-evoked OSN spike response values appear next to each entry.
- Tested on: Drosophila virilis antennal basiconic sensillum AB2
- METHOD: odor-evoked OSN spike response (post minus pre-stimulus); higher = stronger neuronal excitation
- TEST_SETTINGS: odor dilution: 10^-4
TEST_READOUT: odor-evoked OSN spike response (spikes/s)

>>> recorded_value("CCCC(=O)OCC [ethyl butanoate]")
71.9
>>> recorded_value("CC(C)OC(=O)c1ccccc1 [isopropyl benzoate]")
45.6
>>> recorded_value("C/C=C/C(=O)OCC [Ethyl crotonate]")
47.5
>>> recorded_value("CCOC(C)=O [Ethyl acetate]")
65
>>> recorded_value("CCCC(=O)OCc1ccccc1 [benzyl butyrate]")
58.8
